assay: activity coefficient (dimensionless); of the first substance listed, at infinite dilution; xn = mol fraction of the nth substance listed; settings: 343.1 K; 101 kPa; Liquid; Chromatography; x1 = 0
quantity.name: activity coefficient

>>> endpoint_result("Cc1cccc(C)c1 [1,3-dimethylbenzene] + CCCCCC[N+]1(C)CCCC1.O=S(=O)([N-]S(=O)(=O)C(F)(F)F)C(F)(F)F")
1.42
>>> endpoint_result("C#CCCCCC [1-heptyne] + CCCCCC[N+]1(C)CCCC1.O=S(=O)([N-]S(=O)(=O)C(F)(F)F)C(F)(F)F")
2.78
>>> endpoint_result("CCC(C)CC [3-methylpentane] + CCCCCC[N+]1(C)CCCC1.O=S(=O)([N-]S(=O)(=O)C(F)(F)F)C(F)(F)F")
6.37
>>> endpoint_result("CCCCCCCCCCC [undecane] + CCCCCC[N+]1(C)CCCC1.O=S(=O)([N-]S(=O)(=O)C(F)(F)F)C(F)(F)F")
30.1

###

assay: activity coefficient (dimensionless); of the first substance listed, at infinite dilution; xn = mol fraction of the nth substance listed; details: 322.6 K; 101 kPa; Liquid; Chromatography; x1 = 0
As shown below, each of these compounds has a reported activity coefficient value.
quantity.name: activity coefficient

>>> endpoint_result("ClC(Cl)Cl [trichloromethane] + CCCCCCCCCC[N+]1(C)CCCC1.O=S(=O)([N-]S(=O)(=O)C(F)(F)F)C(F)(F)F")
0.39
>>> endpoint_result("CCCCCCCCC [nonane] + CCCCCCCCCC[N+]1(C)CCCC1.O=S(=O)([N-]S(=O)(=O)C(F)(F)F)C(F)(F)F")
8.32
>>> endpoint_result("CCC[N+](=O)[O-] [1-nitropropane] + CCCCCCCCCC[N+]1(C)CCCC1.O=S(=O)([N-]S(=O)(=O)C(F)(F)F)C(F)(F)F")
0.62
>>> endpoint_result("C=CCCCC [hex-1-ene] + CCCCCCCCCC[N+]1(C)CCCC1.O=S(=O)([N-]S(=O)(=O)C(F)(F)F)C(F)(F)F")
2.68
>>> endpoint_result("C1COCCO1 [1,4-dioxane] + CCCCCCCCCC[N+]1(C)CCCC1.O=S(=O)([N-]S(=O)(=O)C(F)(F)F)C(F)(F)F")
0.38
>>> endpoint_result("C1CCCCCC1 [cycloheptane] + CCCCCCCCCC[N+]1(C)CCCC1.O=S(=O)([N-]S(=O)(=O)C(F)(F)F)C(F)(F)F")
7
>>> endpoint_result("CCOCC [diethyl ether] + CCCCCCCCCC[N+]1(C)CCCC1.O=S(=O)([N-]S(=O)(=O)C(F)(F)F)C(F)(F)F")
1.27
>>> endpoint_result("CCCCCCCC [octane] + CCCCCCCCCC[N+]1(C)CCCC1.O=S(=O)([N-]S(=O)(=O)C(F)(F)F)C(F)(F)F")
6.13
>>> endpoint_result("CC#N [acetonitrile] + CCCCCCCCCC[N+]1(C)CCCC1.O=S(=O)([N-]S(=O)(=O)C(F)(F)F)C(F)(F)F")
0.49
>>> endpoint_result("ClCCl [dichloromethane] + CCCCCCCCCC[N+]1(C)CCCC1.O=S(=O)([N-]S(=O)(=O)C(F)(F)F)C(F)(F)F")
0.27
>>> endpoint_result("CCC(C)=O [butanone] + CCCCCCCCCC[N+]1(C)CCCC1.O=S(=O)([N-]S(=O)(=O)C(F)(F)F)C(F)(F)F")
0.39
>>> endpoint_result("C[N+](=O)[O-] [nitromethane] + CCCCCCCCCC[N+]1(C)CCCC1.O=S(=O)([N-]S(=O)(=O)C(F)(F)F)C(F)(F)F")
0.63
>>> endpoint_result("CCCCCCCCCC [decane] + CCCCCCCCCC[N+]1(C)CCCC1.O=S(=O)([N-]S(=O)(=O)C(F)(F)F)C(F)(F)F")
9.42
>>> endpoint_result("Cc1cccc(C)c1 [1,3-dimethylbenzene] + CCCCCCCCCC[N+]1(C)CCCC1.O=S(=O)([N-]S(=O)(=O)C(F)(F)F)C(F)(F)F")
0.99

###

experiment: activity coefficient (dimensionless); of the first substance listed, at infinite dilution; xn = mol fraction of the nth substance listed; details: 333 K; 101 kPa; Liquid; Chromatography; x1 = 0
As shown below, each of these compounds has a reported activity coefficient value.
quantity.name: activity coefficient

>>> endpoint_result("C1CCCCC1 [cyclohexane] + CCCCCC[N+]1(C)CCCC1.O=S(=O)([N-]S(=O)(=O)C(F)(F)F)C(F)(F)F")
4.64
>>> endpoint_result("c1ccncc1 [pyridine] + CCCCCC[N+]1(C)CCCC1.O=S(=O)([N-]S(=O)(=O)C(F)(F)F)C(F)(F)F")
0.52
>>> endpoint_result("CC#N [acetonitrile] + CCCCCC[N+]1(C)CCCC1.O=S(=O)([N-]S(=O)(=O)C(F)(F)F)C(F)(F)F")
0.46
>>> endpoint_result("c1ccsc1 [thiophene] + CCCCCC[N+]1(C)CCCC1.O=S(=O)([N-]S(=O)(=O)C(F)(F)F)C(F)(F)F")
0.71
>>> endpoint_result("CCO [ethanol] + CCCCCCCC[N+]1(C)CCCC1.O=S(=O)([N-]S(=O)(=O)C(F)(F)F)C(F)(F)F")
1.26
>>> endpoint_result("CCc1ccccc1 [ethylbenzene] + CCCCCCCC[N+]1(C)CCCC1.O=S(=O)([N-]S(=O)(=O)C(F)(F)F)C(F)(F)F")
0.98
>>> endpoint_result("CC(C)O [propan-2-ol] + CCCCCCCC[N+]1(C)CCCC1.O=S(=O)([N-]S(=O)(=O)C(F)(F)F)C(F)(F)F")
1.27

###

test: activity coefficient (dimensionless); of the first substance listed, at infinite dilution; xn = mol fraction of the nth substance listed; settings: 333 K; 101 kPa; Liquid; Chromatography; x1 = 0
activity coefficient strictly less than 3 = y. Otherwise n.

>>> assigned_label("CCC(=O)CC [pentan-3-one] + CCCCCC[N+]1(C)CCCC1.O=S(=O)([N-]S(=O)(=O)C(F)(F)F)C(F)(F)F")
"y"
>>> assigned_label("Cc1ccc(C)cc1 [1,4-dimethylbenzene] + CCCCCC[N+]1(C)CCCC1.O=S(=O)([N-]S(=O)(=O)C(F)(F)F)C(F)(F)F")
"y"
>>> assigned_label("CCCCCCCCCC [decane] + CCCCCCCC[N+]1(C)CCCC1.O=S(=O)([N-]S(=O)(=O)C(F)(F)F)C(F)(F)F")
"n"
>>> assigned_label("CCCCCCCCCCC [undecane] + CCCCCC[N+]1(C)CCCC1.O=S(=O)([N-]S(=O)(=O)C(F)(F)F)C(F)(F)F")
"n"
>>> assigned_label("CC(C)O [propan-2-ol] + CCCCCC[N+]1(C)CCCC1.O=S(=O)([N-]S(=O)(=O)C(F)(F)F)C(F)(F)F")
"y"
>>> assigned_label("C1CCCCCC1 [cycloheptane] + CCCCCCCC[N+]1(C)CCCC1.O=S(=O)([N-]S(=O)(=O)C(F)(F)F)C(F)(F)F")
"n"
>>> assigned_label("ClC(Cl)Cl [trichloromethane] + CCCCCC[N+]1(C)CCCC1.O=S(=O)([N-]S(=O)(=O)C(F)(F)F)C(F)(F)F")
"y"
>>> assigned_label("C1CCCCC1 [cyclohexane] + CCCCCCCC[N+]1(C)CCCC1.O=S(=O)([N-]S(=O)(=O)C(F)(F)F)C(F)(F)F")
"n"
>>> assigned_label("CCC[N+](=O)[O-] [1-nitropropane] + CCCCCC[N+]1(C)CCCC1.O=S(=O)([N-]S(=O)(=O)C(F)(F)F)C(F)(F)F")
"y"
>>> assigned_label("C[N+](=O)[O-] [nitromethane] + CCCCCCCC[N+]1(C)CCCC1.O=S(=O)([N-]S(=O)(=O)C(F)(F)F)C(F)(F)F")
"y"
>>> assigned_label("CCC(C)CC [3-methylpentane] + CCCCCCCC[N+]1(C)CCCC1.O=S(=O)([N-]S(=O)(=O)C(F)(F)F)C(F)(F)F")
"n"
>>> assigned_label("CCCO [propan-1-ol] + CCCCCCCC[N+]1(C)CCCC1.O=S(=O)([N-]S(=O)(=O)C(F)(F)F)C(F)(F)F")
"y"
>>> assigned_label("C#CCCCCC [1-heptyne] + CCCCCC[N+]1(C)CCCC1.O=S(=O)([N-]S(=O)(=O)C(F)(F)F)C(F)(F)F")
"y"
>>> assigned_label("ClCCl [dichloromethane] + CCCCCC[N+]1(C)CCCC1.O=S(=O)([N-]S(=O)(=O)C(F)(F)F)C(F)(F)F")
"y"
>>> assigned_label("CCO [ethanol] + CCCCCC[N+]1(C)CCCC1.O=S(=O)([N-]S(=O)(=O)C(F)(F)F)C(F)(F)F")
"y"
>>> assigned_label("CCCCCCC [heptane] + CCCCCCCC[N+]1(C)CCCC1.O=S(=O)([N-]S(=O)(=O)C(F)(F)F)C(F)(F)F")
"n"
>>> assigned_label("C=CCCCC [hex-1-ene] + CCCCCC[N+]1(C)CCCC1.O=S(=O)([N-]S(=O)(=O)C(F)(F)F)C(F)(F)F")
"n"
>>> assigned_label("CC(C)CO [2-methyl-1-propanol] + CCCCCC[N+]1(C)CCCC1.O=S(=O)([N-]S(=O)(=O)C(F)(F)F)C(F)(F)F")
"y"
>>> assigned_label("CCC(=O)CC [pentan-3-one] + CCCCCCCC[N+]1(C)CCCC1.O=S(=O)([N-]S(=O)(=O)C(F)(F)F)C(F)(F)F")
"y"
>>> assigned_label("CCCCCCCCC [nonane] + CCCCCC[N+]1(C)CCCC1.O=S(=O)([N-]S(=O)(=O)C(F)(F)F)C(F)(F)F")
"n"
>>> assigned_label("CC(C)OC(C)C [diisopropyl ether] + CCCCCC[N+]1(C)CCCC1.O=S(=O)([N-]S(=O)(=O)C(F)(F)F)C(F)(F)F")
"n"
>>> assigned_label("C1CCCCCC1 [cycloheptane] + CCCCCC[N+]1(C)CCCC1.O=S(=O)([N-]S(=O)(=O)C(F)(F)F)C(F)(F)F")
"n"
>>> assigned_label("CCC[N+](=O)[O-] [1-nitropropane] + CCCCCCCC[N+]1(C)CCCC1.O=S(=O)([N-]S(=O)(=O)C(F)(F)F)C(F)(F)F")
"y"
>>> assigned_label("CCCC(C)=O [pentan-2-one] + CCCCCC[N+]1(C)CCCC1.O=S(=O)([N-]S(=O)(=O)C(F)(F)F)C(F)(F)F")
"y"
>>> assigned_label("C1COCCO1 [1,4-dioxane] + CCCCCCCC[N+]1(C)CCCC1.O=S(=O)([N-]S(=O)(=O)C(F)(F)F)C(F)(F)F")
"y"
>>> assigned_label("Cc1cccc(C)c1 [1,3-dimethylbenzene] + CCCCCC[N+]1(C)CCCC1.O=S(=O)([N-]S(=O)(=O)C(F)(F)F)C(F)(F)F")
"y"
>>> assigned_label("CCCCCCCCC [nonane] + CCCCCCCC[N+]1(C)CCCC1.O=S(=O)([N-]S(=O)(=O)C(F)(F)F)C(F)(F)F")
"n"
>>> assigned_label("CCCCO [butan-1-ol] + CCCCCC[N+]1(C)CCCC1.O=S(=O)([N-]S(=O)(=O)C(F)(F)F)C(F)(F)F")
"y"
